Entry source: patent US10364233B2

measurement_target: UniProt:Q15109
experiment: General binding assay: inhibition of sRAGE binding to plate-bound S100b
details: average, n = 13, hydrochloride salt, read-out: IC50 (S100b) average
reported_metric: IC50 (nM)
Answer with a number only, understood to be in nM.

Q. Look up IC50 of Cc1nn(C2CCCCC2)c(C)c1S(=O)(=O)N1CCC(CN(CC(C)C)S(=O)(=O)c2ccc(CNCC3CCNCC3)cc2)(c2ccccc2)CC1 and report it.
A. 420

###

measurement_target: sRAGE (β-amyloid as the RAGE ligand) (Homo sapiens)
Sequence (Q15109 23-342 limits assumed): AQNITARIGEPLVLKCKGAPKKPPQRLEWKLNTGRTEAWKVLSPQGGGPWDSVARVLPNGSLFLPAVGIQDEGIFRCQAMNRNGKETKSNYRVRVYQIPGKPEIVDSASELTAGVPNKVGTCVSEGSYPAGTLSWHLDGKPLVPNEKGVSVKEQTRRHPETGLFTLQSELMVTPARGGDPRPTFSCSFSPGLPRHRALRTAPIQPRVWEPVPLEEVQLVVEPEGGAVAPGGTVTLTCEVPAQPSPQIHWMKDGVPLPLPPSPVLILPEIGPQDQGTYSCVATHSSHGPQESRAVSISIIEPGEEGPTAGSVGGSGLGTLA
experiment: General binding assay: inhibition of sRAGE binding to plate-bound β-amyloid
details: average, n = 11, hydrochloride salt, read-out: IC50 (β-amyloid) average
Experimental: The following is one potential method for screening. S100b or β-amyloid (500 ng/100 μL/well) in 100 mM sodium bicarbonate/sodium carbonate buffer (pH 9.8) is loaded onto the wells of a NUNC Maxisorp flat bottom 96-well microtitre plate. […] 100 μL of complex is added to each well and incubation is allowed to proceed at rt for 1 h. […] The reaction is quenched with 10 μL of stop solution (0.5-1.0 N NaOH in 50% ethanol) and the absorbance is measured spectrophotometrically with a microplate reader at 405 nm. […]
reported_metric: IC50 (nM)
Answer with a number only, understood to be in nM.

Q. Look up IC50 of Cc1nn(C2CCCCC2)c(C)c1S(=O)(=O)N1CCC(CN(CC(C)C)S(=O)(=O)c2ccc(CNCC3CCNCC3)cc2)(c2ccccc2)CC1 [compound of Formula (I)] and report it.
A. 400
